Molecular target: UniProtKB P00742
Sequence (P00742 235-488 limits assumed): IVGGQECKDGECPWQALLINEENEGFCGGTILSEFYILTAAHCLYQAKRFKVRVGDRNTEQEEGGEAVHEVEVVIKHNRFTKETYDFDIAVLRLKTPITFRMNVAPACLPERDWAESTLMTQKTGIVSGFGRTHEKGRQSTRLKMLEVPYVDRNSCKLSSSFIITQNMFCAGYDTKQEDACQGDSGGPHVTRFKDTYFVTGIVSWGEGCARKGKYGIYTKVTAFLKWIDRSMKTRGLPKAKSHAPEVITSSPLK
Sequence (P00742 41-179 partner limits assumed): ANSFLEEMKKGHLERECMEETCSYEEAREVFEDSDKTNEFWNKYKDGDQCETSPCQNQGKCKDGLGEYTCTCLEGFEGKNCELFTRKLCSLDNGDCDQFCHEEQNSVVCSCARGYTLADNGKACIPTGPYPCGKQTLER
Test: Determination of activated factor X activity-inhibitory activity (chromogenic substrate S-2222)
Settings: negative logarithm of the concentration suppressing 50% of the reaction rate of the control, 0.015 U/ml FXa
pIC50: −log10 of the molar value.
property-measured: pIC50

Look over these answered cases.
{"compound": "CC(=N)N1CCC(Oc2ccc(C(=O)OCCOc3cccc(C(=N)N)c3)cc2)CC1 [Ex. 16, ditrifluoroacetate]", "pIC50": 7.20}
{"compound": "N=C(N)c1ccc(OCCO)c(OCCOC(=O)c2ccc(C(=N)N3CCCC3)cc2)c1 [Ex. 13, ditrifluoroacetate]", "pIC50": 7.80}
{"compound": "N=C(N)c1ccc(O)c(OCCOC(=O)c2ccc(C(=N)N3CCCC3)cc2)c1 [Ex. 6, ditrifluoroacetate]", "pIC50": 8.50}
{"compound": "N=C(N)c1cccc(OCCOC(=O)c2ccc(C(=N)N3CCCC3)nc2)c1 [Ex. 37, tritrifluoroacetate]", "pIC50": 6.70}

P. CC(=O)Oc1ccc(C(=N)N)cc1OCCOC(=O)c1ccc(C(=N)N2CCCC2)cc1 [Ex. 28, ditrifluoroacetate]
Q. N#CCOc1ccc(C(=N)N)cc1OCCOC(=O)c1ccc(C(=N)N2CCCC2)cc1 [Ex. 20, ditrifluoroacetate]
R. COc1ccc(C(=N)N)cc1OCCOC(=O)c1ccc(C(=N)N2CCCC2)cc1 [Ex. 18, ditrifluoroacetate]
S. N=C(N)c1cccc(OCCOC(=O)c2ccc(OC3CCN(C(=N)N)CC3)cc2)c1 [Ex. 17, ditrifluoroacetate]
T. CC(C)COc1ccc(C(=N)N)cc1OCCOC(=O)c1ccc(C(=N)N2CCCC2)cc1 [Ex. 24, ditrifluoroacetate]
Query :: Ordering: ascending pIC50. Sort and list the labels as requested.
Result :: R, S, T, Q, P
(R: 6.60, S: 7.20, T: 7.40, Q: 7.90, P: 8.40)

###

Recorded paPTT2 for the following compounds
Tested on: human plasma
Test: Determination of anticoagulant activity (aPTT measurement method)
Conditions: negative logarithm of the concentration prolonging the aPTT of the control to two-fold
No unit in the answer, please; the number alone is enough.

{"compound": "N=C(N)c1ccc(OCCO)c(OCCOC(=O)c2ccc(C(=N)N3CCCC3)cc2)c1 [Ex. 13, ditrifluoroacetate]", "test-system": "human plasma", "recorded-measurement": 6.4}

Below: the item to evaluate.
Query :: Recorded paPTT2 for N=C(N)c1ccc(O)c(OCCOC(=O)c2ccc(C(=N)N3CCCC3)cc2)c1 [Ex. 6, ditrifluoroacetate] , please?
Result :: 6

###

Biological target: activated factor IIa (thrombin) (Homo sapiens)
Test: Determination of activated factor II (FIIa, thrombin)-inhibitory activity (chromogenic substrate S-2238)
Type: biochemical
Details: negative logarithm of the concentration suppressing 50% of the reaction rate of the control, 0.125 U/ml thrombin
pIC50: −log10 of the molar value.
property-measured: pIC50

{"molecule": "N=C(N)c1ccc(OCCO)c(OCCOC(=O)c2ccc(C(=N)N3CCCC3)cc2)c1 [Ex. 13, ditrifluoroacetate]", "test-system": "activated factor IIa (thrombin) (Homo sapiens)", "recorded-measurement": 4.20}

P. CC(C)COc1ccc(C(=N)N)cc1OCCOC(=O)c1ccc(C(=N)N2CCCC2)cc1 [Ex. 24, ditrifluoroacetate]
Q. CC(=O)Oc1ccc(C(=N)N)cc1OCCOC(=O)c1ccc(C(=N)N2CCCC2)cc1 [Ex. 28, ditrifluoroacetate]
Query :: Hey, between P and Q which has a smaller measured pIC50? Answer by stating the label of the chosen item.
Result :: P
